ASSAY_COMMENT: Half life in Beagle dog at 10 mg/kg, po
Type: ADME, organism-based, Canis lupus familiaris
REPORTED_CONDITIONS: in vivo
TEST_READOUT: half-life (min)
State just the number; it will be interpreted in min.

Please report the recorded half-life for Nc1nonc1-c1nc2cccc(F)c2n1Cc1cccnn1 .
156

---

TARGET_OR_TEST_SYSTEM: Potassium channel subfamily K member 13 (Homo sapiens, UniProt Q9HB14)
Sequence (Q9HB14 whole entry): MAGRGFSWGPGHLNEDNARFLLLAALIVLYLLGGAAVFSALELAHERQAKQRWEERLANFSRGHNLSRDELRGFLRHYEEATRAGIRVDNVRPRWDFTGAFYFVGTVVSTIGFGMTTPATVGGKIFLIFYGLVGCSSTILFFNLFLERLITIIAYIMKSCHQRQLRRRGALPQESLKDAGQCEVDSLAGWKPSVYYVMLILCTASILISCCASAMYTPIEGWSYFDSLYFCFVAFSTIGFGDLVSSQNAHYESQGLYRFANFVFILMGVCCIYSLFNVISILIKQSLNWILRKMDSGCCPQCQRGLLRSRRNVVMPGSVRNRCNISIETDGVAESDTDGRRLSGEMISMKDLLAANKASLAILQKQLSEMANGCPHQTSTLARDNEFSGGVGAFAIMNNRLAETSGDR
ASSAY_COMMENT: Inhibition of human KCNK13 transfected in HEK293 cells
Type: cell-based
IC50: recorded values
State just the number; it will be interpreted in nM.

Would you please look over these solved cases?
COMPOUND_STRUCTURE_STRING: Cc1nonc1-c1nc2ccccc2n1Cc1ccncc1
IC50 / nM: 89

COMPOUND_STRUCTURE_STRING: Nc1nonc1-c1nc2cccc(F)c2n1Cc1cccnn1
IC50 / nM: 41

COMPOUND_STRUCTURE_STRING: Nc1nonc1-c1nc2cccc(F)c2n1Cc1ccncn1
IC50 / nM: 46

Please report the recorded IC50 for Nc1nonc1-c1nc2cccc(F)c2n1Cc1cnccn1 .
47

Please report the recorded IC50 for Nc1nonc1-c1nc2ccc(F)c(F)c2n1Cc1cccnn1 .
50

Please report the recorded IC50 for Nc1nonc1-c1nc2cccc(F)c2n1Cc1ccc(C(F)(F)F)nn1 .
84

Please report the recorded IC50 for c1ccc2c(c1)nc(-c1ncc[nH]1)n2Cc1ccncc1 .
3430

Please report the recorded IC50 for c1ccc2c(c1)nc(-c1ccn[nH]1)n2Cc1ccncc1 .
9200

Please report the recorded IC50 for Nc1nonc1-c1nc2cccc(F)c2n1Cc1ccnnc1 .
50
